Data provenance: ChEMBL document CHEMBL1157539

System: Plasmodium falciparum
Assay: GSK_TCMDC: Inhibition of Plasmodium falciparum 3D7 in whole red blood cells, using parasite LDH activity as an index of growth. Test compounds present at 2uM
Assay type: functional
metric_name: Inhibition (%)
Give the number; % is assumed, so skip it.

Sample CN1CCC(N2CCC(Oc3cccc(C(=O)NCCCC4CCCC4)c3)CC2)CC1 — what was its Inhibition?
100

Quick check: Inhibition of COc1ccc(CNC2Cc3ccccc3C2)cc1-c1ccc(S(=O)(=O)NCCN2CCCC2)c(F)c1.O=C(O)C(F)(F)F ?
100

Bench note: what Inhibition did c1ccc(-c2nc(Nc3nc4ccccc4[nH]3)[nH]c2-c2ccccc2)cc1 show?
96

Please report the recorded Inhibition for COc1c(C2CCN(CCCCNC(=O)c3ccc(-c4ccc(Cl)cc4)cc3)CC2)ccc2c1C(C)(C)CCC2(C)C .
95

Sample O=C(Nc1ccc2oc(-c3ccc(Cl)cc3Cl)nc2c1)c1ccc([N+](=O)[O-])o1 — what was its Inhibition?
95

====

Test system: Plasmodium falciparum
Test: GSK_TCMDC: Inhibition of Plasmodium falciparum 3D7 in whole red blood cells, using parasite LDH activity as an index of growth. Test compounds present at 2uM
Format: functional
metric_name: Inhibition (%)
Please respond with the number in % and leave the unit unwritten.

Request the reported Inhibition associated with O=C(CNc1ccc(Cl)c(S(=O)(=O)N2CCCC2)c1)Nc1ccc(Br)cc1F
99

Entry COCCCNc1sc(S(=O)(=O)c2ccccc2)nc1S(=O)(=O)c1ccc(Cl)cc1 has what Inhibition?
95

Entry under review: COc1ccc(Nc2ccnc3cc(-c4ccccn4)ccc23)cc1OC.Cl . Reported Inhibition?
91

Looking for the measured Inhibition of CCCCNCc1ccc(OCc2cccc(COc3ccc(CNCCCC)cc3I)c2)c(I)c1.Cl , can you help?
87

Suppose we examine the molecule CN(C)CCCN1CCN(C(=O)c2cc3cc(-c4ccccc4)ccc3n2S(=O)(=O)c2ccccc2)CC1 ; what Inhibition value has been reported?
100

Request the reported Inhibition associated with CCC(ON1C(N)=NC(N)=NC1(C)C)c1ccccc1 (centres undefined)
96

# input molecule: Cc1cccc(C(=O)NC(NC(=S)Nc2ccc([N+](=O)[O-])cc2)C(Cl)(Cl)Cl)c1 (centres undefined) ; wanted: its Inhibition
96

Please give the measured Inhibition for this molecule: COc1ccc2c(NN=Cc3cccnc3)ccnc2c1
97

Please look up its Inhibition: CCCCCCCC1CCN(C[C@H](O)c2ccnc3ccc(OC)cc23)CC1.O=C(O)C(=O)O
94

# get_value(readout='Inhibition', item= CCCCCCN1CCN(Cc2cccc(NC(=O)c3ccc(Cl)c(Cl)c3)c2)CC1.O=C(O)C(F)(F)F )
85

Given CNCCNCc1cccc(-c2cccc(-c3nc4cc(C(F)(F)F)ccc4[nH]3)c2)c1.O=C(O)C(F)(F)F , state its recorded Inhibition.
100

Which Inhibition value is on record for Cc1nc(N)nc(N)c1CCCOc1cccc(Cl)c1 ?
96

Need Inhibition of CC[C@H](NC(=O)c1c(CCCN2CCN(c3ccccc3)CC2)c(-c2ccccc2)nc2cc(O)ccc12)c1ccccc1 , thanks.
96

Could you share which Inhibition value was measured for Cl.O=C(Nc1ccc(Cl)c(Cl)c1)N1CCc2cc3nccc(N4CCN5CCC[C@H]5C4)c3cc21 ?
100

Can you look up the measured Inhibition of CN1CCCc2ccc(NC(=O)C=Cc3ccc(-c4ccc(F)cc4F)o3)cc2C1.O=C(O)C(F)(F)F for me?
98

What measured Inhibition goes with O=C(O)C(F)(F)F.O=[N+]([O-])c1cccc(CNCC2CCN(Cc3ccc(-c4ccccc4)cc3)CC2)c1 ?
100

Tell me the measured Inhibition of O=C(/C=C/c1ccc(Cl)c(Cl)c1)NCCCCCN1CCC(CCNC(=O)/C=C/c2cc(C(F)(F)F)ccc2F)CC1 , please.
98

Param item = Cc1ccc(C)c(NC(=O)Nc2ccc(C)c(-c3ccc(C(=O)Nc4ccncc4)cc3)c2)c1 ; retrieve measured Inhibition.
98

Reported Inhibition, molecule CC(=O)c1ccc(N2CCN(CCC3(c4ccc(Cl)c(Cl)c4)COCN(C(=O)c4ccccc4)C3)CC2)cc1 (centres undefined) : ____
88
